- TGT: Metabotropic glutamate receptor 4 (Homo sapiens, UniProt Q14833)
- Sequence (Q14833 whole entry): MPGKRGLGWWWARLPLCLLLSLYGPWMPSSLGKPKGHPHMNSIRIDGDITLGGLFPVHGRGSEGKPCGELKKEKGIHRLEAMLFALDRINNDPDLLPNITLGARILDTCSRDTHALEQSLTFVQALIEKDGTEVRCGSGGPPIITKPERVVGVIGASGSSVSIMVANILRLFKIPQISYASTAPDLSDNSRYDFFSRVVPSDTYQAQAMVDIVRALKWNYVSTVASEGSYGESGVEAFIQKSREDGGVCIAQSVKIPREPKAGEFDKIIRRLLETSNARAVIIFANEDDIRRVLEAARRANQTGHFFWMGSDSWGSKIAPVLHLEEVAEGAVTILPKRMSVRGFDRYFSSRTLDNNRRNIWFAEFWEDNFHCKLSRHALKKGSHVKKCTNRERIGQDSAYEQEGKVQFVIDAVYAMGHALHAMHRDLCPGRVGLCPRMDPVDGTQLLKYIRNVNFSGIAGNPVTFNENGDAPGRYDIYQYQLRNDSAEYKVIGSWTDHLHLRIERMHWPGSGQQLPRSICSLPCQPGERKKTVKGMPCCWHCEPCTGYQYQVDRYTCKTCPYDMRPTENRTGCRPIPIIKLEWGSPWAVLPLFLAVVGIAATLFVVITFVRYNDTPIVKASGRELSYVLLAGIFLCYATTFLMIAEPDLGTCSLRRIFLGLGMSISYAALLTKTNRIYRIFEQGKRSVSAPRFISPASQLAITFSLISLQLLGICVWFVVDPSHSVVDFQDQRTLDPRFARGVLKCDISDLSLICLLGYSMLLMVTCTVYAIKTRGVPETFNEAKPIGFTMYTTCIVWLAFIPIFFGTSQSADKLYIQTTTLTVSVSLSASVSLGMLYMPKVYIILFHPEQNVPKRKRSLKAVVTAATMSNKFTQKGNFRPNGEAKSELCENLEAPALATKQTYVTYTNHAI
- PROCEDURE SUMMARY: Positive allosteric modulation of human mGlu4 receptor expressed in BHK cells assessed as potentiation of glutamate-induced response after 1 hr by FLIPR assay relative to glutamate
- Type: cell-based
REPORTED ENDPOINT: Emax (%)
Numbers only, in %.

These solved cases illustrate the format of a correct answer.
> print(dat)
                                 compound  measured
1   Cc1ccc(Nc2nc3c(s2)CCCc2n[nH]cc2-3)nc1        28
2   Fc1ccc(Nc2nc3c(s2)CCCc2n[nH]cc2-3)nc1       170
3  Clc1cccc(Nc2nc3c(s2)CCCc2n[nH]cc2-3)n1       220
4    Cn1ccc(Nc2nc3c(s2)CCCc2n[nH]cc2-3)n1       130
5    c1cnc(Nc2nc3c(s2)CCCc2n[nH]cc2-3)nc1       160

Dear reader, for each entry below, please note its Emax.
1. Cc1nc2ccccc2nc1N/N=C/c1ccc(O)cc1
2. c1ccc(Nc2nc3c(s2)CCc2n[nH]cc2-3)nc1
3. c1ccc(Nc2nc3c(s2)CCc2n[nH]cc2-3)cc1
4. CN(C)c1cccc(Nc2nc3c(s2)CCCc2n[nH]cc2-3)n1
5. COCCOc1cccc(Nc2nc3c(s2)CCCc2n[nH]cc2-3)n1

A.
1. 144
2. 150
3. 160
4. 150
5. 90

Record Emax for all entries; do not skip any.
1. Cc1cc(C)cc(-n2ncc3c(N4CCCC(C)C4)ncnc32)c1 (configuration not stated)
2. Cc1cc(C)nc(Nc2nc3c(s2)CCCc2n[nH]cc2-3)c1

A.
1. 100
2. 4

###

- PROCEDURE SUMMARY: Fraction unbound in rat brain
- Type: ADME, tissue-based
I'd appreciate it if you could supply fraction unbound values for the items below.
Give bare numbers.

> print(dat)
                    structure.as.smiles  measured
1       c1ccc(Nc2nc(-c3cn[nH]c3)cs2)nc1     0.014
2  c1ccc(Nc2nc3c(s2)CCCc2[nH]ncc2-3)nc1    0.0043
3  c1cnc(Nc2nc3c(s2)CCCc2[nH]ncc2-3)nc1     0.016

# evaluate next
Q. Please supply the value of reported fraction unbound for the item c1ccc(Nc2nc3c(s2)CCc2[nH]ncc2-3)nc1
A. 0.0043

###

- TGT: UniProt:Q14831
- PROCEDURE SUMMARY: Negative allosteric modulation of mGlu7 receptor
REPORTED ENDPOINT: IC50

Past entries and their recorded results:
> print(dat)
                    structure.as.smiles  reported.endpoint  measured
1  c1ccc(Nc2nc3c(s2)CCCc2[nH]ncc2-3)nc1               IC50   > 10 µM
2  c1cnc(Nc2nc3c(s2)CCCc2[nH]ncc2-3)nc1               IC50   > 10 µM

Q. In one line, give reported IC50 of the entry c1ccc(Nc2nc3c(s2)CCc2[nH]ncc2-3)nc1 .
A. > 10 µM

###

- PROCEDURE SUMMARY: Lipophilicity, log D of the compound at pH 7.4
- Type: physicochemical
- ASSAY SETUP: buffer
REPORTED ENDPOINT: logD
One number for each entry.

> print(dat)
                    structure.as.smiles  measured
1   c1ccc(Nc2nc3c(s2)CCc2[nH]ncc2-3)nc1         4
2  c1ccc(Nc2nc3c(s2)CCCc2[nH]ncc2-3)nc1         5
3  c1cnc(Nc2nc3c(s2)CCCc2[nH]ncc2-3)nc1       3.8

Q. State, in one line, measured logD of c1ccc(Nc2nc(-c3cn[nH]c3)cs2)nc1
A. 3.1

###

- TGT: Metabotropic glutamate receptor 7 (Homo sapiens)
- Sequence (Q14831 whole entry): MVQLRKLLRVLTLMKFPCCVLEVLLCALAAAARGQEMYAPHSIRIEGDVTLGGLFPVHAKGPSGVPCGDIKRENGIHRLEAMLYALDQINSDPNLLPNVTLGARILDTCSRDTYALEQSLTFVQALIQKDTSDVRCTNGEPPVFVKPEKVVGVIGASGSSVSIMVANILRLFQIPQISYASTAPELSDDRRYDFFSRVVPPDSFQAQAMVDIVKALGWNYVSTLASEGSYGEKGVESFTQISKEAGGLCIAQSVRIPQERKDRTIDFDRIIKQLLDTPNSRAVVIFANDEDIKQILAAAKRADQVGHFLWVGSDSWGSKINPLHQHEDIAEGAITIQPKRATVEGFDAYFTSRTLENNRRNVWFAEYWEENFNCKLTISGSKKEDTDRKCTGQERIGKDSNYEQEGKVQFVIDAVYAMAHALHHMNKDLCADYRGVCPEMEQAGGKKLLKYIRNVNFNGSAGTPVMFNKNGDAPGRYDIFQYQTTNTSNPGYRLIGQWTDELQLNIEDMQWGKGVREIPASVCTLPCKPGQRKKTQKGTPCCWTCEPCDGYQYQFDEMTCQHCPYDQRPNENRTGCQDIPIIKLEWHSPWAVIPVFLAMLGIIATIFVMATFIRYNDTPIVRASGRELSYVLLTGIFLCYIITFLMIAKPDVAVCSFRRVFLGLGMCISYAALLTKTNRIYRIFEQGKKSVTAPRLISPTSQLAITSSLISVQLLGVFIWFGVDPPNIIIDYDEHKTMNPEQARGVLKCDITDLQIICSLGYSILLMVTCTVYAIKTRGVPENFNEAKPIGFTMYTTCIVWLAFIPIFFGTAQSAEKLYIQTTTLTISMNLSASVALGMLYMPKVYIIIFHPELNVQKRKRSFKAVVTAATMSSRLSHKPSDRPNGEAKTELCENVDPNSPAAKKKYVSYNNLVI
- PROCEDURE SUMMARY: Positive allosteric modulation of mGlu7 receptor assessed as potentiation of glutamate-induced calcium mobilization
Task for the reader: assign each of the following molecules its reported EC50.

Please review the entries below; each comes with its answer.
> print(dat)
                    structure.as.smiles  measured
1  c1ccc(Nc2nc3c(s2)CCCc2[nH]ncc2-3)nc1   > 10 µM
2  c1cnc(Nc2nc3c(s2)CCCc2[nH]ncc2-3)nc1   > 10 µM

Attention now turns to another entry.
Q. Look up and report measured EC50 for this entry: c1ccc(Nc2nc3c(s2)CCc2[nH]ncc2-3)nc1
A. > 10 µM

###

- TGT: UniProt:Q14833
- PROCEDURE SUMMARY: Positive allosteric modulation of human mGlu4 receptor expressed in BHK cells assessed as potentiation of glutamate-induced response after 1 hr by FLIPR assay relative to glutamate
- Type: cell-based
REPORTED ENDPOINT: Emax
Respond with a number, then the unit of measure.

Below are worked cases with known answers.
> print(dat)
                        structure.as.smiles             tgt  reported.endpoint  measured
1   CCNc1cccc(Nc2nc3c(s2)CCCc2n[nH]cc2-3)n1  UniProt:Q14833               Emax       63%
2   Cc1cc(Nc2nc3c(s2)CCCc2n[nH]cc2-3)n[nH]1  UniProt:Q14833               Emax       39%
3  COC(=O)c1cccc(Nc2nc3c(s2)CCCc2n[nH]cc2-3)n1  UniProt:Q14833               Emax        5%
4      c1cc(Nc2nc3c(s2)CCCc2n[nH]cc2-3)ncn1  UniProt:Q14833               Emax      150%
5        c1[nH]nc2c1-c1nc(NC3CCCCC3)sc1CCC2  UniProt:Q14833               Emax      150%
6            Cc1n[nH]cc1-c1csc(Nc2ccccn2)n1  UniProt:Q14833               Emax       79%

Parameter requested: Emax. Apply to each item below.
1. COc1cccc(Nc2nc3c(s2)CCCc2n[nH]cc2-3)n1
2. c1ccc(Nc2nc(-c3cn[nH]c3)cs2)nc1
3. Cc1ccc(Nc2nc3c(s2)CCc2n[nH]cc2-3)nc1
4. Cc1[nH]ncc1-c1nc(Nc2ccccn2)sc1C
5. c1ccc(Nc2nc3c(s2)CCCc2n[nH]cc2-3)nc1
6. c1cnc(Nc2nc3c(s2)CCCc2n[nH]cc2-3)cn1

A.
1. 100%
2. 72%
3. 12%
4. 19%
5. 120%
6. 18%

###

- TGT: Metabotropic glutamate receptor 5 (Homo sapiens)
- Sequence (P41594 whole entry): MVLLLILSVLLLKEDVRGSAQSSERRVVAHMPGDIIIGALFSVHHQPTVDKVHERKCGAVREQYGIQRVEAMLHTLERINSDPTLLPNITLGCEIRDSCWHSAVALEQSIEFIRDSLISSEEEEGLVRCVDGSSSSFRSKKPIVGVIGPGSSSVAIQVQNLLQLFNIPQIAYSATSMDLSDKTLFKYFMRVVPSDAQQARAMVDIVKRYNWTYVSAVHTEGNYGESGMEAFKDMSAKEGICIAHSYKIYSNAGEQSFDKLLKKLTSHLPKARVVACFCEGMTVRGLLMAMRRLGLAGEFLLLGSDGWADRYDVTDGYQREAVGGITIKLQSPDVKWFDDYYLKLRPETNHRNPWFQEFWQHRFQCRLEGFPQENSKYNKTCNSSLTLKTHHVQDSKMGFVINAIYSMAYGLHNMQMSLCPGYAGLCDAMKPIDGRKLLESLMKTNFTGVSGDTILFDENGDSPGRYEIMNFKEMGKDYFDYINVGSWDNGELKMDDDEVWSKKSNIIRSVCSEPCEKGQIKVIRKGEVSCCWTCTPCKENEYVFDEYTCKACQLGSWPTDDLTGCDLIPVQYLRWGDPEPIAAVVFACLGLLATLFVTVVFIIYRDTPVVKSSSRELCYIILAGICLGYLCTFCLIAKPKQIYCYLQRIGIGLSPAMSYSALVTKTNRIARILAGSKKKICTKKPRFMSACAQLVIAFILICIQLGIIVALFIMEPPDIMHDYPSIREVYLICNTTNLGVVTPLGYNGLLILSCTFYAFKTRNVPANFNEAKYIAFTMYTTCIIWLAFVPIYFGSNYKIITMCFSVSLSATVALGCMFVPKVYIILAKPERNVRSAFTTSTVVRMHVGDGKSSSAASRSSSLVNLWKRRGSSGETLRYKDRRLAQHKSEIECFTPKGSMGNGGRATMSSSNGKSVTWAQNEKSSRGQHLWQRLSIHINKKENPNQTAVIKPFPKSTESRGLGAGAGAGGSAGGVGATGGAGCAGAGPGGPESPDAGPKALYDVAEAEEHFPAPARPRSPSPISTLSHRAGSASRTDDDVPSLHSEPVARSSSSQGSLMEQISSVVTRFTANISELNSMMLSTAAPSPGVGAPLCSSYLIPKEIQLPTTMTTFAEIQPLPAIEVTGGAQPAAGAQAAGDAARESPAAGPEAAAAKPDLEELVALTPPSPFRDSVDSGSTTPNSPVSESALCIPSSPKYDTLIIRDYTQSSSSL
- PROCEDURE SUMMARY: Negative allosteric modulation of mGlu5 receptor
REPORTED ENDPOINT: IC50

Please review the entries below; each comes with its answer.
> print(dat)
                    structure.as.smiles  measured
1  c1ccc(Nc2nc3c(s2)CCCc2[nH]ncc2-3)nc1   > 10 µM
2   c1ccc(Nc2nc3c(s2)CCc2[nH]ncc2-3)nc1   > 10 µM

Q. Please look at this compound and report its IC50: c1cnc(Nc2nc3c(s2)CCCc2[nH]ncc2-3)nc1
A. > 10 µM

###

- PROCEDURE SUMMARY: Kinetic solubility of the compound at pH 7.4 at room temperature
- Type: physicochemical
- ASSAY SETUP: buffer, read-out: Kinetic_solubility
Classify by measured solubility kinetic: condition met if it is equal to or exceeds 20 µM, condition not met if it is smaller.

> print(dat)
                       structure.as.smiles     discrete.label
1  CCNc1cccc(Nc2nc3c(s2)CCCc2n[nH]cc2-3)n1  condition not met
2    Cc1cccc(Nc2nc3c(s2)CCCc2[nH]ncc2-3)n1      condition met
3   COc1cccc(Nc2nc3c(s2)CCCc2[nH]ncc2-3)n1  condition not met
4     Cc1ccc(Nc2nc3c(s2)CCc2n[nH]cc2-3)nc1  condition not met
5      c1ccc(Nc2nc3c(s2)CCc2[nH]ncc2-3)nc1  condition not met

Q. Determine whether measured solubility kinetic meets or exceeds 20 µM for COc1ccnc(Nc2nc3c(s2)CCCc2[nH]ncc2-3)n1
A. condition not met

Q. Identify whether the reported solubility kinetic of the following compound is 20 µM or greater: c1ccc(Nc2nc3c(s2)CCc2[nH]ncc2-3)cc1
A. condition not met

Q. Determine whether measured solubility kinetic meets or exceeds 20 µM for c1cncc(Nc2nc3c(s2)CCCc2[nH]ncc2-3)c1
A. condition not met

Q. Decide: is the reported value of solubility kinetic for c1[nH]nc2c1-c1nc(NC3CCCCC3)sc1CCC2 equal to or greater than 20 µM?
A. condition not met

Q. Evaluate Cc1ccc(Nc2nc3c(s2)CCCc2n[nH]cc2-3)nn1 : solubility kinetic at minimum 20 µM?
A. condition met

Q. Does solubility kinetic meet or surpass 20 µM for COC(=O)c1cccc(Nc2nc3c(s2)CCCc2n[nH]cc2-3)n1 ?
A. condition not met

Q. hey, is solubility kinetic for this one >= 20 µM? c1cc(Nc2nc3c(s2)CCCc2[nH]ncc2-3)[nH]n1
A. condition met

Q. API: above_or_equal(metric=solubility kinetic, cutoff=20 µM) for item CN(C)c1cccc(Nc2nc3c(s2)CCCc2[nH]ncc2-3)n1
A. condition not met

Q. Given Cc1cc(C)nc(Nc2nc3c(s2)CCCc2[nH]ncc2-3)c1 , state whether its solubility kinetic is at least 20 µM.
A. condition not met

Q. Reported solubility kinetic at or above 20 µM? c1cc(Nc2nc3c(s2)CCc2[nH]ncc2-3)ccn1
A. condition met

Q. Reported solubility kinetic at or above 20 µM? c1cncc(Nc2nc3c(s2)CCc2[nH]ncc2-3)c1
A. condition not met
